Every entry's value here was drawn from ChEMBL document CHEMBL5233229.

- subjectOfTest: Ubiquitin carboxyl-terminal hydrolase 7 (Homo sapiens, UniProt Q93009)
- Sequence (Q93009 whole entry, the tested form may be a part): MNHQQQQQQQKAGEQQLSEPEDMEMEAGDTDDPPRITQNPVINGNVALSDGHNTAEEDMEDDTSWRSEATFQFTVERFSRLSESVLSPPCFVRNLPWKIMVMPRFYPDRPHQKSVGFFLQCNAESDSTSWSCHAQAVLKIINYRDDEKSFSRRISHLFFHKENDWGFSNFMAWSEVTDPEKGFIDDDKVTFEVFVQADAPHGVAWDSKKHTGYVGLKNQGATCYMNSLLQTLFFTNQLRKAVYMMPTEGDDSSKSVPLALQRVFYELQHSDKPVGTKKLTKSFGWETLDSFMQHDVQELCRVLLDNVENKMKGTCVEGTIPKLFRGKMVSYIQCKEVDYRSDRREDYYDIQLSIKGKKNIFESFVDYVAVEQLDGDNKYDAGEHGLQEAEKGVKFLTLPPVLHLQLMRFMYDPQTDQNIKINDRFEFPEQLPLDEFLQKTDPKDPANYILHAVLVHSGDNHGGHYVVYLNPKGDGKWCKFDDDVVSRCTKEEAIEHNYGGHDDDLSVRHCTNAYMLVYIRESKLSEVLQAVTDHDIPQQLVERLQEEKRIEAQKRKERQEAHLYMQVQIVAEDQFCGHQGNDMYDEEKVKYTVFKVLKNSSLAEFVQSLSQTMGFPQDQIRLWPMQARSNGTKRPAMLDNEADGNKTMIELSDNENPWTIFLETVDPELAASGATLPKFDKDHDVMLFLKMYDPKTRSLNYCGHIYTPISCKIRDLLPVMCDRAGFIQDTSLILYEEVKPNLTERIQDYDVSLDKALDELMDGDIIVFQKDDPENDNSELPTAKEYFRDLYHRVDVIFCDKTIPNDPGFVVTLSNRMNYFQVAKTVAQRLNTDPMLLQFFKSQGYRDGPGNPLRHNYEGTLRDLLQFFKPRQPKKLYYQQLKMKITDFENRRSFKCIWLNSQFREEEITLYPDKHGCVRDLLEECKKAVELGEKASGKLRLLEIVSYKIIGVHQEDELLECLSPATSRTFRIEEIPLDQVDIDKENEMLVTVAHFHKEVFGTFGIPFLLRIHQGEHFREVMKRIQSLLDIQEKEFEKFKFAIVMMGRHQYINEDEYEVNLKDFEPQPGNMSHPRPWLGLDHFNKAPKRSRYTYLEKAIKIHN
- assayMethodText: Inhibition of human his tagged USP7 (208 to 560 residues) catalytic domain expressed in insect sf9 cells using monoubiquitinated ubiquitin-rhodamine as substrate incubated for 1 hrs by fluorescence based assay
readoutType: IC50 (nM)
Give just the numeric value; nM need not be written.

Form: compound = O=C(C[C@@H](C(F)F)n1ccc(F)n1)N1CCC(O)(Cn2cnc3c(cnn3-c3ccc(F)cc3)c2=O)CC1 ; IC50 = 69

* * *

- subjectOfTest: Ubiquitin carboxyl-terminal hydrolase isozyme L5 (Homo sapiens, UniProt Q9Y5K5)
- Sequence (Q9Y5K5 whole entry): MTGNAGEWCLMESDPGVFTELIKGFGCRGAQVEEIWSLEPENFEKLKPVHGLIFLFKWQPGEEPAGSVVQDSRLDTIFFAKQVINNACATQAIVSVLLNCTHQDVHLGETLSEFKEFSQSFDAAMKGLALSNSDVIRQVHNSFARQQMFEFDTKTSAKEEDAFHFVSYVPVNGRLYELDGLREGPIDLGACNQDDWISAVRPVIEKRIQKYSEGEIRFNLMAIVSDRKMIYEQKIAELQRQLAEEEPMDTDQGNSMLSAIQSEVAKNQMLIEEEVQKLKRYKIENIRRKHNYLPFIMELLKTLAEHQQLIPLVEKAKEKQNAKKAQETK
readoutType: pKd
Conceptually, pKd converts a concentration in mol/L into minus its log10.

Form: compound = C=CC(=O)N1CC/C(=C\c2ccc(F)c([N+](=O)[O-])c2)C(=O)/C(=C/c2ccc(F)c([N+](=O)[O-])c2)C1 ; pKd = 5.82

* * *

Would you mind telling me the reported EC50 of each entry?
- subjectOfTest: UniProt Q93009
- assayMethodText: Inhibition of human USP7 using Ub-EKL as substrate

Response field EC50 (UniProt Q93009) for item O=C(Nc1ccc2c(c1)S(=O)(=O)C=C2)c1nnc(Sc2c(Cl)cncc2Cl)o1 : < 1000 nM

Response field EC50 (UniProt Q93009) for item O=C(Nc1ccc2c(c1)S(=O)(=O)C=C2)c1cnc(Sc2ccncc2Cl)s1 : 5000 nM

Response field EC50 (UniProt Q93009) for item Cc1nc2ccc(NC(=O)c3nnc(Sc4c(Cl)cncc4Cl)s3)cc2s1 : 1000 nM

Response field EC50 (UniProt Q93009) for item CC(=O)c1cccc(NC(=O)c2nnc(Sc3c(Cl)cncc3Cl)s2)c1 : 1000 nM

Response field EC50 (UniProt Q93009) for item CN(C)CC(O)COc1ccc(NC(=O)c2nnc(Sc3c(Cl)cncc3Cl)s2)cc1 (stereo not given) : < 1000 nM

Response field EC50 (UniProt Q93009) for item Nc1ncc(Cl)c(Sc2nnc(C(=O)Nc3ccc4c(c3)S(=O)(=O)C=C4)s2)c1Cl : 2000 nM

Response field EC50 (UniProt Q93009) for item O=C(Nc1ccc2c(c1)S(=O)(=O)C=C2)c1nnc(Sc2c(Cl)cncc2Br)s1 : < 1000 nM

Response field EC50 (UniProt Q93009) for item COCCOCCN(C(=O)c1nnc(Sc2c(Cl)cncc2Cl)s1)c1ccc2c(c1)S(=O)(=O)CC2 : 2000 nM

Response field EC50 (UniProt Q93009) for item CN(C(=O)c1nnc(Sc2c(Cl)cncc2Cl)s1)c1ccc2c(c1)S(=O)(=O)C=C2 : 1000 nM

Response field EC50 (UniProt Q93009) for item O=C(Nc1cnccn1)c1nnc(Sc2c(Cl)cncc2Cl)s1 : < 1000 nM

* * *

readoutType: IC50

Response field IC50 (Ubiquitin carboxyl-terminal hydrolase 20 (Homo sapiens)) for item O=C(NCCc1ccc(Cl)cc1)c1ccc2nc3c(c(Cl)c2c1)CCCC3 : > 200 µM

* * *

- subjectOfTest: Ubiquitin carboxyl-terminal hydrolase 8 (Homo sapiens, UniProt P40818)
- Sequence (P40818 whole entry): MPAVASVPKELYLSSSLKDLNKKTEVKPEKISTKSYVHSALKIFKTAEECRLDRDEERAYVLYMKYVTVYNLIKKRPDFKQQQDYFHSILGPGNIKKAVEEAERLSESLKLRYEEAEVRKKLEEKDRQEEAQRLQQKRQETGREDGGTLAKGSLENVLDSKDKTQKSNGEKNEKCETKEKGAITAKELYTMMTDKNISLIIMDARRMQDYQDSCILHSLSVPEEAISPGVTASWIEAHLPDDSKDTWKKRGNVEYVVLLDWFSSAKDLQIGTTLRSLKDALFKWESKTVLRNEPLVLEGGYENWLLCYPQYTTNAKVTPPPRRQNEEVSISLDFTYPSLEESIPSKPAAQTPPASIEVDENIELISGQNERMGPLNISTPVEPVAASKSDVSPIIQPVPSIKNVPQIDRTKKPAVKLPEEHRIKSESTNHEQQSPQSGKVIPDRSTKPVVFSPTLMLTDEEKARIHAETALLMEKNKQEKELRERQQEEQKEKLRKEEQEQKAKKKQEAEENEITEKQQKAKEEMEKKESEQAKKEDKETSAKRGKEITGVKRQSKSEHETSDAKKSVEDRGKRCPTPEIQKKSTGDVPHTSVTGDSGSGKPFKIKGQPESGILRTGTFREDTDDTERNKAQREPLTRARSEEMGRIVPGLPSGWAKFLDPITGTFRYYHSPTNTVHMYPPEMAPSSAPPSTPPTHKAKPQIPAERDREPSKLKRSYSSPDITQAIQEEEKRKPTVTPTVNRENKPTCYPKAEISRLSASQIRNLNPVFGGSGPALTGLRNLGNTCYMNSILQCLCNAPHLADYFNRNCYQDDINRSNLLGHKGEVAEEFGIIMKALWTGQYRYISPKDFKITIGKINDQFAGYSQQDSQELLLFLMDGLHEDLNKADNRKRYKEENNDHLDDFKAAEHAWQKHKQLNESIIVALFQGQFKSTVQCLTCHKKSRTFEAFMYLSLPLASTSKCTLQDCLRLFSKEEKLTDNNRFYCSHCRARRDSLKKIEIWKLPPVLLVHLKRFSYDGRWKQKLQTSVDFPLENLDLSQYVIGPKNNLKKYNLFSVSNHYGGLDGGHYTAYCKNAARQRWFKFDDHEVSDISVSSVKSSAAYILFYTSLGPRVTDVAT
- assayMethodText: Inhibition of human USP8 using Ub-AMC as substrate
pIC50: −log10 of the molar value.
Would you mind telling me the reported pIC50 of each entry?

Form: molecule = CCOc1nc2c(nc1C#N)C(=O)c1ccccc1-2 ; pIC50 = < 4.00

Form: molecule = N#Cc1nc2c(nc1C#N)-c1cc(Cl)ccc1C2=O ; pIC50 = 6.88

Form: molecule = CCO/C(O)=C(\C#N)c1nc2c(nc1C#N)C(=O)c1ccccc1-2 ; pIC50 = < 4.00

* * *

- subjectOfTest: Ubiquitin carboxyl-terminal hydrolase 8 (Homo sapiens, UniProt P40818)
- Sequence (P40818 whole entry): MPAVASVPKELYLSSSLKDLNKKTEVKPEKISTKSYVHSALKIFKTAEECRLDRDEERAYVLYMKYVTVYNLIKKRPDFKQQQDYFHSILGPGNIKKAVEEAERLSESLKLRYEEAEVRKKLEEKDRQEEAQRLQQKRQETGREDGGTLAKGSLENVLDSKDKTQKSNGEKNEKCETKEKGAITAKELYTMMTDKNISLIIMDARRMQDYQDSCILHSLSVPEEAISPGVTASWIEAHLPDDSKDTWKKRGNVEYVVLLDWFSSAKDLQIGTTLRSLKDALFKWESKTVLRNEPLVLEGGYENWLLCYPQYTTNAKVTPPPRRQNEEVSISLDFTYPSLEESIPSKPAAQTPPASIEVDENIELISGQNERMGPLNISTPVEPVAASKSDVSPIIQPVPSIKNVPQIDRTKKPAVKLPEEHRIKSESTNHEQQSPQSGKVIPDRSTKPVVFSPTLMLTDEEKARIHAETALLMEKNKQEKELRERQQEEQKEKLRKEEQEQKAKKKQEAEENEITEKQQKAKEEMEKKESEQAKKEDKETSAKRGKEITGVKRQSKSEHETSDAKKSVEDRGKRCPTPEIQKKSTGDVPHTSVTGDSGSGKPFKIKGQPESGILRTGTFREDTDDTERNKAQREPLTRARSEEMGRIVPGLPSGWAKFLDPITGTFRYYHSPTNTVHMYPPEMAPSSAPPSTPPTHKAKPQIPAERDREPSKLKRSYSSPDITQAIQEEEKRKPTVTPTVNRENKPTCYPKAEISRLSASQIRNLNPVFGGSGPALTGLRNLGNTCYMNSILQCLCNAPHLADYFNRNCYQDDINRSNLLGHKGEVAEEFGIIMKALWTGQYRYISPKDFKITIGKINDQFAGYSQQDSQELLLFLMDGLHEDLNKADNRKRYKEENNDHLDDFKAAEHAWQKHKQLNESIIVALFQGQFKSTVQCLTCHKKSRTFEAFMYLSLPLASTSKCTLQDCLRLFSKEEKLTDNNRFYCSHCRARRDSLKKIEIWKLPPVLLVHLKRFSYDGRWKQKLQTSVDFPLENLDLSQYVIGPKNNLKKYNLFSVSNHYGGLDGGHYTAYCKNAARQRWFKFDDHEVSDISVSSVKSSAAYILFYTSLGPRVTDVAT
- assayMethodText: Inhibition of human USP8 using Di-Ub IQF as substrate incubated for 15 mins by K63-2 assay
readoutType: IC50 (µM)
Give just the numeric value; µM need not be written.

Form: compound = Cc1ccc(S(=O)(=O)Nc2cc(C(F)(F)F)ccc2C(=O)Nc2nc(-c3ccccc3)cs2)cc1 ; IC50 = 0.95
